Property: z-score; scope: individual molecules
Test: yeast growth modulation, basal conditions, primary screen, YJM789 clinical isolate, OD600, 24 h (AID 1089);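 note: growth of clinical yeast isolate S. cerevisiae YJM 789 seeded 1000 cells per well; test concentration not given here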
Settings: S. cerevisiae YJM789 growth, higher = more signal, called active from +8 up or from −8 down
Endpoint: z-score

1) CCOC(=O)C[C@H]1[C@H](OC(=O)c2ccc(C(=O)c3ccccc3)cc2)[C@@H](NC(=O)CC(C)C)c2cc(OCCCO)ccc2N1C(=O)Cc1ccc(OC)cc1: 0.247
2) COc1cccc(/C=C(\C#N)C(=O)Nc2c(C)n(C)n(-c3ccccc3)c2=O)c1: -1.58
3) COCCOC(=O)N1C(=O)[C@@]2(c3cc(C#Cc4ccc(OC)cc4)ccc31)[C@H](C(=O)NC[C@H](O)c1ccccc1)[C@H]1C(=O)O[C@H](c3ccccc3)[C@H](c3ccccc3)N1[C@@H]2c1ccc(OCCO)cc1: 1.62
